- TARGET UNDER TEST: AGT (DMa, major allele) (Homo sapiens, UniProt P21549, F238S/F240S/R118A)
- Construct: full length, expressed in E. coli BL21(DE3), purified on HisPrep FF (His-tagged, removal not mentioned)
- Sequence (P21549 whole entry R118A/F238S/F240S): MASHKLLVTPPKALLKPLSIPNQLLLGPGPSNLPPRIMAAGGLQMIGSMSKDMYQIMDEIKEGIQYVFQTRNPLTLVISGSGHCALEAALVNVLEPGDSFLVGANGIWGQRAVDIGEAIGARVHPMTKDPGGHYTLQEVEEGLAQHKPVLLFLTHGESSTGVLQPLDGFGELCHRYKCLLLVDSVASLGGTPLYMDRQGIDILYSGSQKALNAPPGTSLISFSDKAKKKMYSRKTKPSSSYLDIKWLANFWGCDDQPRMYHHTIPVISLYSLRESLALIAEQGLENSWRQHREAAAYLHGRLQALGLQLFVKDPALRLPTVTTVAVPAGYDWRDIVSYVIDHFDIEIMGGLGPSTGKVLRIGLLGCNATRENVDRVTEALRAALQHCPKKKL
- METHOD NOTES: CD signal at […] nm, tight-binding quadratic fit
- APPLIED CONDITIONS: read-out: KD(PLP)
MEASURED ENDPOINT: pKd
For clarity, pKd is expressed as the negative log10 of concentration in mol/L.

Enquiry: Determine reported pKd for `Cc1ncc(COP(=O)(O)O)c(C=O)c1O` ; test system: AGT (DMa, major allele) (Homo sapiens, UniProt P21549, F238S/F240S/R118A).
Return: 5.49

Reference source: paper PMC8067440
